# reported inhibition at 10 µM; entries follow
system: LYPLA1 (Mus musculus, UniProt P97823)
Construct: a complex proteome endogenously expressing LYPLA1/2 was incubated with test compound; from tissue; host or cells: mouse brain, membrane fraction
Sequence (P97823 whole entry): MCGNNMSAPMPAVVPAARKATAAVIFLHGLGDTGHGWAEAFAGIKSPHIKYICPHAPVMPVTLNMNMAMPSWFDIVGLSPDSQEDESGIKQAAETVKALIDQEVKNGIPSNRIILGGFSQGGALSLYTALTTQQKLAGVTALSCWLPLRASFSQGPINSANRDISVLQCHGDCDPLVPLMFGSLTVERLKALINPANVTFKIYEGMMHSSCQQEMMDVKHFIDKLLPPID
procedure-summary: Gel-based competitive ABPP in vitro, mouse brain membrane proteome
Type: biochemical
test-context: 10 μM compound, 30 min, one replicate; read-out: LYPLA1 % INH 10 μM
quantity-name: inhibition at 10 µM (%)

# compound, val
records = [
    ("O=C(ON1C(=O)C2CN(CCc3ccccc3)CCN2C1=O)N1CCC(CCc2ccc(Cl)cc2)CC1 (centres unmarked) [Compound 12]", 95),
    ("COC(=O)C1CCN(C(=O)ON2C(=O)C3CN(C(=O)OC(C)(C)C)CCN3C2=O)CC1 (centres unmarked) [Compound 15]", 0),
    ("O=C(Cc1ccccc1)N1CCN2C(=O)N(OC(=O)N3CCC(CCc4ccc(Cl)cc4)CC3)C(=O)C2C1 (centres unmarked) [Compound 6]", 100),
    ("CC(C)(C)OC(=O)N1CCN2C(=O)N(OC(=O)N3CCC(CCc4ccc(Cl)cc4)CC3)C(=O)C2C1 (centres unmarked) [Compound 5]", 100),
    ("O=C(ON1C(=O)C2CN(Cc3ccc(Br)cc3)CCN2C1=O)N1CCC(CCc2ccc(Cl)cc2)CC1 (centres unmarked) [Compound 13]", 75),
]

---

system: PLA2G7 (Mus musculus, UniProt Q60963)
Construct: from tissue; host or cells: mouse brain, membrane fraction
Sequence (Q60963 22-440): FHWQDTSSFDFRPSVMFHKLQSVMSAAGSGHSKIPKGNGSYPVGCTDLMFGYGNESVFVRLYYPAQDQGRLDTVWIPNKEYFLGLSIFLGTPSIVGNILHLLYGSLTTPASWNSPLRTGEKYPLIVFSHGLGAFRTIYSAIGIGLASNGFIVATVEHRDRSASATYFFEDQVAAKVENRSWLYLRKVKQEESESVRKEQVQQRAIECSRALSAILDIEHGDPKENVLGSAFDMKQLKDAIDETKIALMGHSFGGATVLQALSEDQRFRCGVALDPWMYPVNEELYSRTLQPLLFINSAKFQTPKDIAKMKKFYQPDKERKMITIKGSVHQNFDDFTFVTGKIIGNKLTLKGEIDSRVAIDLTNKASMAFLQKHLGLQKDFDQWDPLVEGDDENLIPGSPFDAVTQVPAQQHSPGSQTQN
procedure-summary: Gel-based competitive ABPP in vitro, mouse brain membrane proteome
Assay type: biochemical
test-context: 10 μM, mouse brain (mem) proteome
quantity-name: PLA2G7 in vitro enzyme activity, % @ 10 μM

# compound, val
records = [
    ("O=C(ON1C(=O)[C@@H]2CN(Cc3ccc(Br)cc3)CCN2C1=O)N1CCC(CCc2ccc(Cl)cc2)CC1", "100% @"),
    ("C#Cc1ccc(CCC2CCN(C(=O)ON3C(=O)[C@H]4CN(C(=O)N5CCOCC5)CCN4C3=O)CC2)cc1", "100% @"),
    ("O=C(ON1C(=O)[C@@H]2CN(C(=O)N3CCOCC3)CCN2C1=O)N1CCC(CCc2ccc(Cl)cc2)CC1", "100% @"),
    ("C#Cc1ccc(CCC2CCN(C(=O)ON3C(=O)C4CN(C(=O)N5CCOCC5)CCN4C3=O)CC2)cc1 (stereo not shown)", "0% @"),
]

---

# reported inhibition at 1 µM; entries follow
system: LYPLA2 (Mus musculus, UniProt Q9WTL7)
Construct: a complex proteome endogenously expressing LYPLA1/2 was incubated with test compound; from tissue; host or cells: mouse brain, membrane fraction
Sequence (Q9WTL7 whole entry): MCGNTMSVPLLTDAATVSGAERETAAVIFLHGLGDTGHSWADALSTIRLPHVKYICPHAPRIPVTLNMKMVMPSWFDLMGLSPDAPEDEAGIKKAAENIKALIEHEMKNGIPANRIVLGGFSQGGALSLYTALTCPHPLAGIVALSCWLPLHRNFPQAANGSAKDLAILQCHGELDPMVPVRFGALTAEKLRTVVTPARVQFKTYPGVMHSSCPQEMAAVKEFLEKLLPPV
procedure-summary: Gel-based competitive ABPP in vitro, mouse brain membrane proteome
Format: biochemical
test-context: 1 μM compound, 30 min, one replicate; read-out: LYPLA2 % INH 1 μM

# compound, system, unit-name, inhibition at 1 µM
measured = [
    ("O=C(ON1C(=O)C2CN(C(=O)N3CCOCC3)CCN2C1=O)N1CCC(CCc2ccc(Cl)cc2)CC1 (centres unmarked)", "LYPLA2 (Mus musculus, UniProt Q9WTL7)", "%", 100),
    ("CCN(C(=O)C1CCN(C(=O)ON2C(=O)C3CN(C(=O)OC(C)(C)C)CCN3C2=O)CC1)c1ccccc1 (centres unmarked)", "LYPLA2 (Mus musculus, UniProt Q9WTL7)", "%", 10),
    ("CC(C)(C)CC(=O)N1CCN2C(=O)N(OC(=O)N3CCC(CCc4ccc(Cl)cc4)CC3)C(=O)C2C1 (centres unmarked)", "LYPLA2 (Mus musculus, UniProt Q9WTL7)", "%", 100),
    ("COc1ccc(C(=O)N2CCN3C(=O)N(OC(=O)N4CCC(CCc5ccc(Cl)cc5)CC4)C(=O)C3C2)cc1 (centres unmarked)", "LYPLA2 (Mus musculus, UniProt Q9WTL7)", "%", 90),
    ("Cc1ccc(C(=O)N2CCN3C(=O)N(OC(=O)N4CCC(CCc5ccc(Cl)cc5)CC4)C(=O)C3C2)cc1 (centres unmarked)", "LYPLA2 (Mus musculus, UniProt Q9WTL7)", "%", 75),
]

---

system: LYPLA2 (Mus musculus, UniProt Q9WTL7)
Construct: a complex proteome endogenously expressing LYPLA1/2 was incubated with test compound; from tissue; host or cells: mouse brain, membrane fraction
procedure-summary: Gel-based competitive ABPP in vitro, mouse brain membrane proteome
Format: biochemical
test-context: 0.1 μM compound, 30 min, one replicate; read-out: LYPLA2 % INH 0.1 μM
quantity-name: inhibition at 0.1 µM (%)

# compound, quantity-name, val
rows = [
    ("O=C(ON1C(=O)C2CN(C(=O)N3CCCCC3)CCN2C1=O)N1CCC(CCc2ccc(Cl)cc2)CC1 (stereo not shown)", "inhibition at 0.1 µM", 50),
    ("CC(C)(C)OC(=O)N1CCN2C(=O)N(OC(=O)N3CCN(C(c4ccc(Cl)cc4)c4ccc(Cl)cc4)CC3)C(=O)C2C1 (stereo not shown)", "inhibition at 0.1 µM", 0),
    ("CCN(C(=O)C1CCN(C(=O)ON2C(=O)C3CN(C(=O)OC(C)(C)C)CCN3C2=O)CC1)c1ccccc1 (stereo not shown)", "inhibition at 0.1 µM", 0),
    ("CC(C)(C)OC(=O)N1CCN2C(=O)N(OC(=O)N3CCOCC3Cc3ccccc3)C(=O)C2C1 (stereo not shown)", "inhibition at 0.1 µM", 0),
    ("CC(C)(C)OC(=O)N1CCN2C(=O)N(OC(=O)N3CCC(C(=O)Nc4ccccc4)CC3)C(=O)C2C1 (stereo not shown)", "inhibition at 0.1 µM", 0),
    ("CC(C)(C)OC(=O)N1CCN2C(=O)N(OC(=O)N3CCCCC3)C(=O)C2C1 (stereo not shown)", "inhibition at 0.1 µM", 0),
    ("COC(=O)C1CCN(C(=O)ON2C(=O)C3CN(C(=O)OC(C)(C)C)CCN3C2=O)CC1 (stereo not shown)", "inhibition at 0.1 µM", 0),
    ("O=C(ON1C(=O)C2CN(Cc3ccc(Br)cc3)CCN2C1=O)N1CCC(CCc2ccc(Cl)cc2)CC1 (stereo not shown)", "inhibition at 0.1 µM", 0),
    ("CC(C)(C)CC(=O)N1CCN2C(=O)N(OC(=O)N3CCC(CCc4ccc(Cl)cc4)CC3)C(=O)C2C1 (stereo not shown)", "inhibition at 0.1 µM", 80),
    ("O=C(ON1C(=O)C2CN(C(=O)N3CCCC3)CCN2C1=O)N1CCC(CCc2ccc(Cl)cc2)CC1 (stereo not shown)", "inhibition at 0.1 µM", 50),
]
